Cited source for all entries: patent US20260234180A1

tested on: HBV virus; test: HBV infection of HepG2-NTCP cells, Southern blot analysis; format: cell-based, hepatitis B virus (HBV); settings: 20 μM
measuredAttribute: amount of HBeAg DNA detected compared to the negative control group (Mock)

molecule="CC[C@@H](C)[C@H](NC(=O)CC[C@@H](C)[C@H]1CC[C@H]2[C@@H]3[C@@H](O)C[C@@H]4C[C@H](O)CC[C@]4(C)[C@H]3CC[C@]12C)C(=O)O [Example 2]" experimentalvalue="relatively less amount"
molecule="C[C@H](CCC(=O)N[C@@H](CCC(=O)O)C(=O)O)[C@H]1CC[C@H]2[C@@H]3CC[C@@H]4C[C@H](O)CC[C@]4(C)[C@H]3CC[C@]12C [Example 55]" experimentalvalue="relatively less amount"
molecule="CC(C)[C@H](NC(=O)CC[C@@H](C)[C@H]1CC[C@H]2[C@@H]3[C@@H](O)C[C@@H]4C[C@H](O)CC[C@]4(C)[C@H]3CC[C@]12C)C(=O)O [Example 3]" experimentalvalue="relatively less amount"
molecule="CC[C@@H](C)[C@H](NC(=O)CC[C@@H](C)[C@H]1CC[C@H]2[C@@H]3CC[C@@H]4C[C@H](O)CC[C@]4(C)[C@H]3C[C@H](O)[C@]12C)C(=O)O [Example 10]" experimentalvalue="relatively less amount"
molecule="CC(C)[C@H](NC(=O)CC[C@@H](C)[C@H]1CC[C@H]2[C@@H]3CC[C@@H]4C[C@H](O)CC[C@]4(C)[C@H]3CC[C@]12C)C(=O)N[C@@H](Cc1c[nH]c2ccccc12)C(=O)O [Example 25]" experimentalvalue="relatively less amount"

Would you be so kind as to report amount of HBeAg DNA detected compared to the negative control group (Mock) for each listed record?
1. CC[C@@H](C)[C@H](NC(=O)CC[C@@H](C)[C@H]1CC[C@H]2[C@@H]3CC[C@@H]4C[C@H](O)CC[C@]4(C)[C@H]3CC[C@]12C)C(=O)O [Example 1]
2. CC(C)[C@H](NC(=O)CC[C@@H](C)[C@H]1CC[C@H]2[C@@H]3CC[C@@H]4C[C@H](O)CC[C@]4(C)[C@H]3CC[C@]12C)C(=O)O [Example 44]

A)
1: relatively less amount; 2: relatively less amount

Q) Determine its reported amount of HBeAg DNA detected compared to the negative control group (Mock): C[C@H](CCC(=O)N[C@@H](Cc1ccc(O)cc1)C(=O)O)[C@H]1CC[C@H]2[C@@H]3CC[C@@H]4C[C@H](O)CC[C@]4(C)[C@H]3CC[C@]12C [Example 52]
A) relatively less amount

* * *

target: NTCP (Na+ taurocholate cotransporting peptide), HepG2-hNTCP-C4 cell line (Homo sapiens, UniProt Q14973); construct: expressed in transfected cells; host or cells: HepG2-hNTCP-C4 (HepG2 cells expressing human NTCP); test: Inhibition of binding between FITC-labelled PreS1 and NTCP expressing cell line, flow cytometry; conditions: compound 50 µM, 20 nM PreS1, 4° C., 2 hours; lower = more inhibited binding
Sequence (Q14973 whole entry): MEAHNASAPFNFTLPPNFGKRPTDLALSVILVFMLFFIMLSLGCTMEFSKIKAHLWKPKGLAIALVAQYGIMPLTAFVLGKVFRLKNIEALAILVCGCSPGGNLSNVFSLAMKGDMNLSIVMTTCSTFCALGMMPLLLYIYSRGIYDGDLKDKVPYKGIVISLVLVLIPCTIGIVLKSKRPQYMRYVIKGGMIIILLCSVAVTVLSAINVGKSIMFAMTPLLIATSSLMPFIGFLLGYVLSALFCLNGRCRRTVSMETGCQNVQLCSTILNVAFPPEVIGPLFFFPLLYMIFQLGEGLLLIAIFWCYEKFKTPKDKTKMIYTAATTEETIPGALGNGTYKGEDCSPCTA
measuredAttribute: relative fluorescence intensity compared to Comparative Example 1 (LCA)

compound="C[C@H](CCC(=O)N[C@@H](Cc1ccccc1)C(=O)O)[C@H]1CC[C@H]2[C@@H]3CC[C@@H]4C[C@H](O)CC[C@]4(C)[C@H]3CC[C@]12C [Example 49]" experimentalvalue=low
compound="C[C@H](CCC(=O)N[C@@H](Cc1cnc[nH]1)C(=O)O)[C@H]1CC[C@H]2[C@@H]3CC[C@@H]4C[C@H](O)CC[C@]4(C)[C@H]3CC[C@]12C [Example 43]" experimentalvalue=low
compound="C[C@H](CCC(=O)N[C@@H](CO)C(=O)O)[C@H]1CC[C@H]2[C@@H]3CC[C@@H]4C[C@H](O)CC[C@]4(C)[C@H]3CC[C@]12C [Example 51]" experimentalvalue=low
compound="C[C@H](CCC(=O)N[C@@H](CCCCN)C(=O)O)[C@H]1CC[C@H]2[C@@H]3CC[C@@H]4C[C@H](O)CC[C@]4(C)[C@H]3CC[C@]12C [Example 56]" experimentalvalue=low

Q) Write down relative fluorescence intensity compared to Comparative Example 1 (LCA) measured for item C[C@H](NC(=O)CC[C@@H](C)[C@H]1CC[C@H]2[C@@H]3CC[C@@H]4C[C@H](O)CC[C@]4(C)[C@H]3CC[C@]12C)C(=O)O [Example 46]
A) low
